Ref: patent US10034886B2

target: GLP-1R (Homo sapiens); construct: host or cells: GLP-1R CRE-bla CHO-K1 cells; assay: EC20 GLP-1(9-36) PAM cAMP assay: dose response of compound in the presence of fixed concentration of GLP-1(9-36); assay type: cell-based; conditions: dose response of compound in presence of fixed concentration of GLP-1(9-36), GLP-1R CRE-bla CHO-K1 cells, read-out: EC20 GLP-1(9-36) PAM EC50
Observed Property: EC50

Name the reported EC50 value associated with the molecule CCCCCCCOc1ccc2nc(-c3ccc(C[C@H](NC(=O)c4ccc(C(C)(C)C)cc4)C(=O)N[C@H](C)C(=O)O)cc3)ncc2c1
800 to 2500 nM

Moving on to CCCCCCCOc1ccc(-c2cnc(-c3ccc(C[C@H](NC(=O)c4ccc(C(C)(C)C)s4)C(=O)N[C@@H](Cc4cn(C)cn4)C(=O)O)cc3)nc2)cc1
< 800 nM

Try this molecule too: CCCCCCCOc1ccc(-c2cnc(-c3ccc(C[C@@H](NC(=O)c4ccc(C(C)(C)C)cc4)C(=O)N[C@@H](C)C(=O)O)cc3)nc2)cc1
< 800 nM

How about this molecule: CC[C@H]1CC[C@H](c2ccc(-c3cnc(-c4ccc(C[C@H](NC(=O)c5ccc(C(C)(C)C)s5)C(=O)N[C@@H](C)C(=O)O)cc4)nc3)cc2)CC1
800 to 2500 nM

Lookup CCCCCCCOc1ccc(-c2cnc(-c3ccc(C[C@H](NC(=O)c4ccc(C(C)(C)C)cc4)C(=O)NC(CC(=O)O)c4ccc(OC)cc4)cc3)nc2)cc1 (stereo partly drawn)
800 to 2500 nM

Again, but for CCCCCCCOc1ccc(-c2cnc(-c3ccc(C[C@H](NC(=O)c4ccc(C(C)(C)C)cc4)C(=O)NCc4ccc(C(=O)O)o4)cc3)nc2)cc1
800 to 2500 nM

###

target: GLP-1R (Homo sapiens, UniProt P43220); construct: host or cells: GLP-1R CRE-bla CHO-K1 cells; assay: EC20 GLP-1(9-36) PAM cAMP assay: dose response of compound in the presence of fixed concentration of GLP-1(9-36); assay type: cell-based; conditions: dose response of compound in presence of fixed concentration of GLP-1(9-36), GLP-1R CRE-bla CHO-K1 cells, read-out: EC20 GLP-1(9-36) PAM EC50
Sequence (P43220 24-463): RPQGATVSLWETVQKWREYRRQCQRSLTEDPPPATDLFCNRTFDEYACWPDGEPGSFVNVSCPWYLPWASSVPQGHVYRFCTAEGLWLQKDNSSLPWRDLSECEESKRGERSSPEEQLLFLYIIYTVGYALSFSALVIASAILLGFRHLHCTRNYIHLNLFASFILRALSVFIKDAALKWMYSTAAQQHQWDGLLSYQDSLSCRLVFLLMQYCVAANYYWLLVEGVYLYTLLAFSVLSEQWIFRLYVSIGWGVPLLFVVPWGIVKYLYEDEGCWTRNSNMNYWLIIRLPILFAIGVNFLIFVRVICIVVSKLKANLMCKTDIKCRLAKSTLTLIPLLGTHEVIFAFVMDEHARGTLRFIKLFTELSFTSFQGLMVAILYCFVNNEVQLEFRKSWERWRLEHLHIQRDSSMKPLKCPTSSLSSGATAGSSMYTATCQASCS
Sequence (P01275 100-127 partner limits assumed): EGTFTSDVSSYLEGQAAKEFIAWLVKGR
Observed Property: EC50

Guide cases for EC50, answers given:
>>> endpoint_value("CCCCCCCOc1ccc(-c2cnc(-c3ccc(C[C@H](NC(=O)c4ccc(C(C)C)s4)C(=O)N4CC[C@H](C(=O)O)C4)cc3)nc2)cc1")
"2.5 to 5 µM"
>>> endpoint_value("C[C@@H](NC(=O)[C@H](Cc1ccc(-c2ncc(-c3ccc(Cl)cc3)cn2)cc1)NC(=O)c1ccc(C(C)(C)C)s1)C(=O)O")
"2.5 to 5 µM"
>>> endpoint_value("CCCCCCCOc1ccc(-c2cnc(-c3ccc(C[C@H](NC(=O)c4ccc(C(C)(C)C)s4)C(=O)NCC(=O)NCC(=O)O)cc3)nc2)cc1")
"< 0.8 µM"
>>> endpoint_value("CCCCCCCOc1ccc(-c2cnc(-c3ccc(C[C@H](NC(=O)c4ccc(C(C)(C)C)s4)C(=O)N4CC[C@H]4C(=O)O)cc3)nc2)cc1")
"0.8 to 2.5 µM"

Query the reported EC50 for GLP-1R (Homo sapiens, UniProt P43220); item: CCCCCCCOc1ccc(-c2cnc(-c3ccc(C[C@H](NC(=O)c4ccc(CCCC)cc4)C(=O)N4CCC[C@H]4C(=O)O)cc3)nc2)cc1
0.8 to 2.5 µM

Next record, please: CCCCCCCOc1ccc(-c2cnc(-c3ccc(C[C@H](NC(=O)c4ccc(C(C)(C)C)s4)C(=O)NCCN)cc3)nc2)cc1
5 to 10 µM

For CCCCCCCOc1ccc(-c2cnc(-c3ccc(C[C@H](NC(=O)c4ccc(C(C)(C)C)cc4)C(=O)N[C@@H](C)C(=O)O)cc3)nc2)cc1 then?
< 0.8 µM

Query CCCCCCCOc1ccc(-c2cnc(-c3ccc(C[C@H](NC(=O)c4ccc(C(C)(C)C)cc4)C(=O)N4C[C@H](O)C[C@H]4C(=O)O)cc3)nc2)cc1 [Compound 567] next
< 0.8 µM

Cool, now CCCCCCCOc1ccc(-c2cnc(-c3ccc(C[C@H](NC(=O)c4ccc(CC(C)C)s4)C(=O)N[C@H](C)C(=O)O)cc3)nc2)cc1
0.8 to 2.5 µM

Repeat for the following molecule: CCCCCCCOc1ccc(-c2cnc(-c3ccc(C[C@H](NC(=O)c4ccc(C(C)(C)C)s4)C(=O)NC[C@@H]4CCNC4)cc3)nc2)cc1
2.5 to 5 µM

Follow-up entry: CCCCCCCOc1ccc(-c2cnc(-c3ccc(C[C@H](NC(=O)c4ccc(C(C)(C)C)cc4)C(=O)N4C[C@H](OC(C)(C)C)C[C@H]4C(=O)O)cc3)nc2)cc1
0.8 to 2.5 µM

Also need CCCCCCCOc1ccc(-c2cnc(-c3ccc(C[C@H](NC(=O)c4ccc(C(C)(C)C)s4)C(=O)O)cc3)nc2)nc1 , thanks.
0.8 to 2.5 µM
